The values you see were collected from patent US20070117743A1.

- Tested on: DU-145
- ASSAY_DETAILS: SRB colorimetric assay of cell growth and viability, DU-145
- Assay type: cell-based, human
- EXPERIMENTAL_SETUP: 48 hours exposure
Where a SMILES comes first, the peptide text is derived from it. Bridges are numbered along the chain shown (N, C = ends). [ ]: non-standard residue; d: D form. The star is where a group is joined. d(aIle) = CC[C@H](C)[C@@H](N)C(=O)O; d(aThr) = C[C@@H](O)[C@@H](N)C(=O)O; Hexanoyl(5-Me) = CC(C)CCCC(=O)*; Orn = NCCC[C@H](N)C(=O)O; Dhb = C/C=C(\N)C(=O)O
I'd be grateful if you could share measured LC50 (concentration causing 50% net cell kill) for these entries.
Give bare numbers, in µM.

Previously resolved entries follow.
QUERY: Request the reported LC50 (concentration causing 50% net cell kill) associated with C/C=C1\NC(=O)[C@H](Cc2ccccc2)NC(=O)[C@@H](C(C)C)NC(=O)[C@@H]([C@@H](C)CC)NC(=O)[C@H](NC(=O)[C@H](NC(=O)[C@H](CCCN)NC(=O)[C@H]2CCCN2C(=O)[C@H](NC(=O)[C@@H](NC(=O)CNC(=O)CCCC(C)C)C(C)C)C(C)C)[C@@H](C)CC)[C@@H](C)OC(=O)[C@H](C(C)C)NC1=O [Compound 53, [Gly^12, noD-Val^13]-KF] ({Hexanoyl(5-Me)}-GV[dV][dP][Orn][d(aIle)][d(aThr)][d(aIle)][dV]F[Dhb]V; ester 7-C)
RESULT: 7.49

QUERY: Entry C/C=C1\NC(=O)[C@H](Cc2ccccc2)NC(=O)[C@@H](C(C)C)NC(=O)[C@@H]([C@@H](C)CC)NC(=O)[C@H](NC(=O)[C@H](NC(=O)[C@H](CCCN)NC(=O)[C@H]2CCCN2C(=O)[C@H](NC(=O)[C@@H](NC(=O)[C@H](CC(C)C)NC(=O)CCCC(C)C)C(C)C)C(C)C)[C@@H](C)CC)[C@@H](C)OC(=O)[C@H](C(C)C)NC1=O [Compound 54, [Leu^12, noD-Val^13]-KF] ({Hexanoyl(5-Me)}-LV[dV][dP][Orn][d(aIle)][d(aThr)][d(aIle)][dV]F[Dhb]V; ester 7-C) : reported LC50 (concentration causing 50% net cell kill) = ?
RESULT: 4.61

QUERY: Given the entry C/C=C1\NC(=O)[C@H](Cc2ccccc2)NC(=O)[C@@H](C(C)C)NC(=O)[C@@H]([C@@H](C)CC)NC(=O)[C@H](NC(=O)[C@H](NC(=O)[C@H](CCCN)NC(=O)[C@H]2CCCN2C(=O)[C@H](NC(=O)[C@@H]2CCCN2C(=O)[C@@H](NC(=O)[C@H](NC(=O)CCCC(C)C)C(C)C)[C@@H](C)O)C(C)C)[C@@H](C)CC)[C@@H](C)OC(=O)[C@H](C(C)C)NC1=O [Compound 47, [Pro^11]-KF] ({Hexanoyl(5-Me)}-[dV]TP[dV][dP][Orn][d(aIle)][d(aThr)][d(aIle)][dV]F[Dhb]V; ester 8-C) , report its measured LC50 (concentration causing 50% net cell kill).
RESULT: 6.78

Shift focus to the following entry.
QUERY: Which LC50 (concentration causing 50% net cell kill) reading was recorded for the molecule C/C=C1\NC(=O)[C@H](Cc2ccccc2)NC(=O)[C@@H](C(C)C)NC(=O)[C@@H]([C@@H](C)CC)NC(=O)[C@H](NC(=O)[C@H](NC(=O)[C@H](CCCN)NC(=O)[C@H]2CCCN2C(=O)[C@H](NC(=O)[C@H](CC(C)C)NC(=O)[C@@H](NC(=O)[C@H](NC(=O)CCCC(C)C)C(C)C)[C@@H](C)O)C(C)C)[C@@H](C)CC)[C@@H](C)OC(=O)[C@H](C(C)C)NC1=O [Compound 45, [Leu^11]-KF] ({Hexanoyl(5-Me)}-[dV]TL[dV][dP][Orn][d(aIle)][d(aThr)][d(aIle)][dV]F[Dhb]V; ester 8-C) ?
RESULT: 3.54
